Measured melting point, listed per entry.

COc1ccc(C(=O)Nc2ccc(C(=O)N3CCC[C@H]4CCCC[C@@H]43)c3ccccc23)cc1OC (racemic) [Example 27] = 251 to 260 °C

INPUT: # get_value(readout='melting point', item= O=C(Nc1cccc(-c2ccc(C(=O)N3CCC[C@H]4CCCC[C@@H]43)o2)c1)c1ccccc1 (racemic) [Example 34] )
OUTPUT: 62 to 64 °C

INPUT: For CN(CC1CCCCC1)C(=O)c1ccc(NC(=O)c2ccc(F)cc2)cc1 [Example 1] , what is its reported melting point?
OUTPUT: 158 to 160 °C

INPUT: Given the compound CC1=C(C(=O)N2CCC[C@@H]3CCCC[C@H]32)Cc2ccccc21 (racemic) [Example 36] , what is its reported melting point?
OUTPUT: 98 to 100 °C
